B1: PDZK1 (parent)
chain: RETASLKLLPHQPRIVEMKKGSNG

- Variants of: B1
- Test: protein stability index of a GFP-peptide fusion (GPS, HEK-293T) (PSI 1-6); higher = more stable;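 further: lentivirally expressed fusions sorted by FACS into six bins by GFP to DsRed ratio, PSI derived from sequencing read proportions per bin multiplied by bin number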
- Condition Summary: c terminus: a fixed tail appended
Consider the following variants; for each one, report its protein stability index.
Reply with the value as a number alone.

// query Reported protein stability index for `G21D` : what is it?
// result 4.48

// query Reported protein stability index for `G21Q` : what is it?
// result 2.92

// query Reported protein stability index for `L6V` : what is it?
// result 3.54

// query Reported protein stability index for `L9K` : what is it?
// result 3.99

// query Reported protein stability index for `G24N` : what is it?
// result 4.49

// query Reported protein stability index for `Q12S` : what is it?
// result 4.05

// query Reported protein stability index for `K19D` : what is it?
// result 4.35

// query Reported protein stability index for `S5L` : what is it?
// result 3.73

// query Reported protein stability index for `N23L` : what is it?
// result 3.11

// query Reported protein stability index for `L9G` : what is it?
// result 4.12

// query Reported protein stability index for `G24C` : what is it?
// result 4.01
